Literature pIC50 values, system: Hepatocyte growth factor receptor (Homo sapiens).
pIC50: −log10 of the molar value.

Qu. Query the reported pIC50 for Hepatocyte growth factor receptor (Homo sapiens); item: c1ccc(-c2ccc3nnc(Sc4ccc5ncccc5c4)n3n2)cc1
Ans. > 7.00

Qu. What reported pIC50 corresponds to O=C(c1ccc(-c2cnc3c(c2)N(Cc2c(F)ccc(F)c2Cl)CCN3)cc1)N1CCC[C@H]1CN1CCCC1 on Hepatocyte growth factor receptor (Homo sapiens)?
Ans. 6.00 to 7.00

Qu. API: value(readout= pIC50, system= Hepatocyte growth factor receptor (Homo sapiens), query= COc1cc2nccc(Oc3c(F)cc(NC(=O)c4cnccc4OCC(F)F)cc3F)c2cc1OCCO )
Ans. ≥ 7.00

---

Compiled notes: published IC50 values involving Hepatocyte growth factor receptor (Homo sapiens).

Here's what some known entries look like.
CCOc1ccn(-c2ccc(F)cc2)c(=O)c1C(=O)Nc1ccc(Oc2ccnc3cc(OCCCN4CCOCC4)c4c(c23)OCCO4)c(F)c1    ≤ 50 nM
COc1ccc(C2=NN(Cc3cccc(-c4ncc(N)cn4)c3)C(=O)SC2)cc1OC    10 to 1000 nM
Cn1cc2c(F)c(C(F)(F)c3nnc4ccc(-c5ccc(C#N)nc5)nn34)ccc2n1    182 nM

Qu. Notebook entry, Hepatocyte growth factor receptor (Homo sapiens) assay: IC50 of CN(C)c1ccnc2ccc(Sc3nnc4ccc(-c5cnn(C)c5)nn34)cc12 = ?
Ans. 100 to 1000 nM

Qu. Query the reported IC50 for Hepatocyte growth factor receptor (Homo sapiens); item: CCOC(=O)Nc1cccc(Cn2nc(-c3cccs3)ccc2=O)c1
Ans. 10 to 1000 nM

Qu. Query the reported IC50 for Hepatocyte growth factor receptor (Homo sapiens); item: Nc1ncc(-c2ccc(OCC(=O)NCC3CCCCC3)cc2)cc1-c1nc2ccccc2s1
Ans. 1000 to 20000 nM

Qu. Entry CS(=O)(=O)c1cccc(-c2cnc3[nH]cc(C(O)c4c(F)ccc(F)c4F)c3c2)c1 (centres unmarked) , system Hepatocyte growth factor receptor (Homo sapiens): what IC50 was measured?
Ans. ≤ 10000 nM

Qu. Query IC50 on Hepatocyte growth factor receptor (Homo sapiens) for Nc1ncc(-c2cnn(C3CCNCC3)c2)cc1-c1nc2cc(F)ccc2s1
Ans. ≤ 100 nM

Qu. Give the reported IC50 for CC(C)n1cc(C(=O)Nc2ccc(Oc3ccnc4cc(OCCCN5CCOCC5)c5c(c34)OCCO5)c(Cl)c2)c(=O)n(-c2ccc(F)cc2)c1=O (system: Hepatocyte growth factor receptor (Homo sapiens)).
Ans. 50 to 500 nM

Qu. Form field - read-out: IC50; system: Hepatocyte growth factor receptor (Homo sapiens); submitted item: CCOc1ccn(-c2ccc(Cl)cc2)c(=O)c1C(=O)Nc1ccc(Oc2ccnc3cc(OC)c4c(c23)OCCO4)c(F)c1
Ans. ≤ 50 nM

---

The entries below pair compounds with IC50 values for Hepatocyte growth factor receptor (Homo sapiens), as found in several publications.

Previously resolved entries follow.
CCNc1ccn(-c2ccc(F)cc2)c(=O)c1C(=O)Nc1cc(F)c(Oc2ccnc(-c3cnn(C)c3)c2)cc1F    ≤ 100 nM
COc1cc2nccc(Oc3c(F)cc(NC(=O)c4cnccc4OC)cc3F)c2cc1OCC(C)(C)O    ≤ 100 nM

Qu. Field: IC50 (Hepatocyte growth factor receptor (Homo sapiens)). Entry: CN(C)c1nc2cc(C(=O)Nc3ccc(Oc4ccnc(N)c4Cl)c(F)c3)c(=O)n(-c3ccc(F)cc3)c2s1
Ans. 10 to 100 nM

Qu. Checklist item: IC50 tested on Hepatocyte growth factor receptor (Homo sapiens), entry Nc1nccc(Oc2ccc(NC(=O)c3c4n(n(-c5ccccc5)c3=O)CCCC4)cc2F)c1Cl , value?
Ans. 30 nM

Qu. Look up IC50 with Hepatocyte growth factor receptor (Homo sapiens) for this compound: O=C(c1cnc2c(c1)N(Cc1cc(Cl)ccc1Cl)CCN2)N1CCN(c2ccc(Cl)cc2)CC1
Ans. > 100000 nM

---

Record set: IC50 | Hepatocyte growth factor receptor (Homo sapiens) | literature, multiple sources.

CNCCOc1ccc2c(Oc3c(F)cc(NC(=O)c4cnc(F)cc4OC4CC4)cc3F)ccnc2c1    ≤ 0.1 µM
CCOC(=O)C(=O)Nc1cccc(CN2N=C(c3ccc(Cl)cc3)CSC2=O)c1    0.01 to 1 µM
CC(c1c(F)ccc(F)c1Cl)N1CCNc2ncc(I)cc21 (stereo not drawn)    10 to 100 µM
OC1CCNc2ncc(Br)cc21 (stereo not drawn)    > 100 µM
CCOc1ccn(-c2ccc(F)cc2)c(=O)c1C(=O)Nc1ccc(Oc2ccnc3cc(OCCCN(C)C4CCC4)c4c(c23)OCCO4)c(F)c1    ≤ 0.05 µM

Qu. # returns recorded IC50 (system: Hepatocyte growth factor receptor (Homo sapiens)) for Cn1ncc2ccc(-c3n[nH]c4c3Cc3sc(C5CCN(C(=O)CN6CCOCC6)CC5)cc3-4)cc21
Ans. > 1 µM

---

pIC50: −log10 of the molar value.
Multi-source literature compilation: pIC50 on Hepatocyte growth factor receptor (Homo sapiens, UniProt P08581).

Examples from the recorded data:
COc1cc2c(Oc3c(F)cc(NC(=O)c4cnccc4OC4CC4)cc3F)ccnc2cc1OC[C@H](C)O    ≥ 7.00
CCOC(=O)Nc1cccc(Cn2nc(-c3ccc(CNC(=O)CCN)cc3)ccc2=O)c1    6.00 to 8.00
CCOC(=O)c1ccc(-c2cnc3c(c2)N(Cc2c(F)ccc(F)c2Cl)C(=O)CN3)cc1    < 4.00
NC(=O)c1ccc(-c2ccc3nnc(Cc4ccc5ncccc5c4)n3n2)cc1    > 7.00
Cn1ncc2ccc(-c3n[nH]c4c3Cc3sc(-c5ccc(CN6CCOCC6)c(F)c5F)cc3-4)cc21    < 6.00
CC(=O)N1CCN([C@H]2C[C@H](n3cc(-c4cc(OC[C@@H]5CCCO5)ccc4F)c4c(N)ncnc43)C2)CC1    < 5.00
CNCCCOc1cc2nccc(Oc3c(F)cc(NC(=O)c4cnccc4OC4CC4)cc3F)c2cc1OC    ≥ 7.00
Cn1ncc2ccc(-c3n[nH]c4c3Cc3sc(-c5ccc(CC6CCOCC6)cc5)cc3-4)cc21    < 6.00
N#Cc1cnc2c(c1)N(Cc1cc(F)ccc1F)CCN2    < 4.00
NC(=O)c1ccc(-c2cnc3c(c2)N(Cc2ccccc2)C(=O)CN3)cc1    4.00 to 5.00

Qu. # query: pIC50 | item CC(c1ccc2nc(NC(=O)C3CC3)cn2n1)c1nnc2ccccn12 (stereo not shown) | system: Hepatocyte growth factor receptor (Homo sapiens, UniProt P08581)
Ans. < 7.00

Qu. Kindly state the measured pIC50 obtained for CCN1Cc2c(ccc(F)c2C#N)O[C@@H](C)CNC(=O)c2cnn3ccc1nc23 with Hepatocyte growth factor receptor (Homo sapiens, UniProt P08581).
Ans. 8.73

Qu. Provide value of pIC50 for this record tested with Hepatocyte growth factor receptor (Homo sapiens, UniProt P08581): Nc1nccc(Oc2ccc(NC(=O)c3c4n(n(-c5ccccc5)c3=O)CCCC4)cc2)c1Cl
Ans. 7.27

---

Recorded pIC50 for compounds tested on UniProtKB P08581, drawn from a number of studies.
pIC50: −log10 of the molar value.

COc1ccc(F)cc1[C@@H](C)Oc1cc(-c2c(C)ncn2C)cnc1N    4.88
CCOC(=O)Nc1cccc(Cn2nc(-c3ccc(OCCCCCN)cc3)ccc2=O)c1    6.00 to 8.00
CCNC(=O)c1ccc(-c2ccc3nnc(C(F)(F)c4ccc5nn(C)cc5c4F)n3n2)cc1F    7.16
COc1cc2nccc(Oc3ccc(NC(=O)c4cn(CCCO)c(=O)n(-c5ccc(F)cc5)c4=O)cc3F)c2c2c1OCCO2    ≥ 7.30

Qu. Which pIC50 is listed for CCOc1ccn(-c2ccc(F)cc2)c(=O)c1C(=O)Nc1cc(F)c(Oc2ccnc3cc(OC)c4c(c23)OCCO4)cc1Cl ?
Ans. ≥ 7.30

Qu. Any idea what pIC50 was measured for CNCCOc1cc2nccc(Oc3c(F)cc(NC(=O)c4cnccc4OC[C@@H](C)O)cc3F)c2cc1OC ?
Ans. ≥ 7.00

Qu. # get_value(readout='pIC50', item= Cn1cc(-c2ccc3nnc(C(F)(F)c4ccc5nc(N)cn5n4)n3c2)cn1 )
Ans. 6.20 to 6.60

Qu. Requested read-out: pIC50. Entry: Cc1ccc2nnc(Cc3ccc4ncccc4c3)n2n1
Ans. 6.00 to 7.00

---

The following compounds were reported with pIC50 values on Hepatocyte growth factor receptor (Homo sapiens) in different studies.
pIC50: −log10 of the molar value.

Some compounds with known pIC50 results, for comparison:
COc1ccc(Nc2nccc(-c3ccc(Br)s3)n2)cc1OC    5.30 to 6.00
CCOC(=O)Nc1cccc(Cn2nc(-c3cccc(C(=O)NCCOC)c3)ccc2=O)c1    6.00 to 8.00
CCn1c(=O)n(-c2ccccc2Cl)c2c3cc(Br)ccc3ncc21    ≥ 6.30

Qu. Please tell me: pIC50 of O=C(NCCCN1CCCC1)c1ccc(/C=C2\Sc3ccccc3N(Cc3ccccc3F)C2=O)cc1 , system Hepatocyte growth factor receptor (Homo sapiens)?
Ans. < 4.70

Qu. Please tell me: pIC50 of CNC(=O)c1c(F)cc(-c2ccc3nnc(C(F)(F)c4cc5cn(C)nc5cc4F)n3n2)cc1F , system Hepatocyte growth factor receptor (Homo sapiens)?
Ans. 7.56

Qu. Can you look up pIC50 on Hepatocyte growth factor receptor (Homo sapiens) for CCN1CC(Cn2cc(-c3cnc4ccc(Cc5nnc6ccc(C)nn56)cc4c3)cn2)C1 ?
Ans. > 7.00

Qu. What is its pIC50 for Hepatocyte growth factor receptor (Homo sapiens)? Entry: CCOc1ccn(-c2ccc(C)cc2)c(=O)c1C(=O)Nc1ccc(Oc2ccnc3cc(OC)c4c(c23)OCCO4)c(F)c1
Ans. ≥ 7.30

Qu. Record lookup: for Hepatocyte growth factor receptor (Homo sapiens), what pIC50 belongs to Clc1cccc(OC2CCNc3ncc(-c4ccc(N5CCOCC5)cc4)cc32)c1 (centres unmarked) ?
Ans. 4.00 to 5.00
